Target: Glycogen phosphorylase, muscle form (Oryctolagus cuniculus, UniProt P00489)
Sequence (P00489 whole entry): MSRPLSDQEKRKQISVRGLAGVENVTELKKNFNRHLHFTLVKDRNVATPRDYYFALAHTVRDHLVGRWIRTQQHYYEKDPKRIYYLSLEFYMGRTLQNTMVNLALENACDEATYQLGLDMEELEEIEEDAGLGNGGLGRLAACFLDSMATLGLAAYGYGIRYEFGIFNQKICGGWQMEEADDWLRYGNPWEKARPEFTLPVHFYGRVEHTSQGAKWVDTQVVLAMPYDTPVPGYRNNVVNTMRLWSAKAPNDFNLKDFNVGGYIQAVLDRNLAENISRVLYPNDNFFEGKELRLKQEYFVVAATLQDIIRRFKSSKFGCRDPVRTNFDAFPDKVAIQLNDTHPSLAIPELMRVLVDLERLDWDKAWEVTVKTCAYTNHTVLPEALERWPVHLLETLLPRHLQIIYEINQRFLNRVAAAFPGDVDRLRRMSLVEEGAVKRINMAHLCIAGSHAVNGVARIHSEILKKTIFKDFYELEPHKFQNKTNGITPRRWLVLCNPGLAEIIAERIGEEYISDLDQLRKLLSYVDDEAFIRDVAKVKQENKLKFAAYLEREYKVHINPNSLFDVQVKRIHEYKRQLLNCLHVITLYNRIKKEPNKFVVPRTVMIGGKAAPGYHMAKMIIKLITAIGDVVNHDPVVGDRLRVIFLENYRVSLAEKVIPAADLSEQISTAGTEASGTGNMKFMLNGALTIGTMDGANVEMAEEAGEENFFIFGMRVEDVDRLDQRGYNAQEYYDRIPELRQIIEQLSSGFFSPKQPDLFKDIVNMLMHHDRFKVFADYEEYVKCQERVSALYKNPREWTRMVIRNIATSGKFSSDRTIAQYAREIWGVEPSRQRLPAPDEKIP
Procedure summary: Competitive inhibition of rabbit muscle glycogen phosphorylase-a assessed as release of inorganic phosphate using varying levels of glucose-1-phosphate and constant concentration of AMP and glycogen measured after 1 min by Dixon plot method
Measured property: Ki (nM)
A number alone suffices; assume nM.

structure_smiles=OC[C@H]1O[C@@H](c2nc(-c3ccc4ccccc4c3)c[nH]2)[C@H](O)[C@@H](O)[C@@H]1O measured_property=Ki units=nM experimental_value=65

// switching to the query compound
query: Would you mind telling me what Ki value was observed for "OC[C@H]1O[C@@H](c2nc(-c3ccccc3)c[nH]2)[C@H](O)[C@@H](O)[C@@H]1O" ?
result: 226

meta.source: ChEMBL document CHEMBL3872223
